test system: SK-MEL-28; assay: NCI tumour cell line growth inhibition, 48 h
Calls of active or inactive are those of the source. No stated cut-off is given here; in the data, active = GI50 up to about 1.1 µM and inactive = higher.
Provide the recorded GI50 for the entries that follow.

I have this compound here, `O=C1Nc2ccc(Br)cc2/C1=N/Nc1ccc([N+](=O)[O-])cc1[N+](=O)[O-]` , and I need its recorded GI50. 3.33 µM (inactive)

Would you mind doing NC1CNC(=O)c2c(Cl)sc(Cl)c21 (stereo unspecified) as well? > 100 µM (inactive)

Here is the next compound: `O=c1c2cccnc2ncn1CCN1CCCC1` > 100 µM (inactive)

Okay, and CCOC(O)(NC(=O)C(C(F)(F)F)C(F)(F)F)C(F)(F)F (stereo unspecified) ? > 100 µM (inactive)

Repeat for the following compound: CC1NOC(=O)C1/N=N/c1ccccc1Cl (stereo unspecified) 32.7 µM (inactive)

Request: `CCOC(=O)c1cc(C(=O)c2ccccc2)n2nc(-c3ccc(Cl)cc3)ccc12` 28.4 µM (inactive)

`C/C(CC(=O)Nc1ccc(C)c(C)c1)=N\N(c1ccccc1)c1ccccc1` ? 68.1 µM (inactive)

Try this compound too: `COc1ccc(C2=N/C(=C\c3ccccc3)C(=O)O2)cc1` > 100 µM (inactive)

Next record, please: CC1CC(c2ccc([N+](=O)[O-])cc2)=Nc2ccccc2S1 (stereo unspecified) 17.9 µM (inactive)

Okay, and `CC(=O)NNc1nc(C)c(C(=O)NNC(=O)C(=O)Nc2ccc(Cl)cc2)s1` ? > 100 µM (inactive)

Same question, `Cc1ccc2nc(-c3ccc(C(C)(C)C)cc3)oc(=O)c2c1` this time 27.4 µM (inactive)

Please do the same for `CCCCCCCC/C=C\CCCCCCCC(=O)O` as well. 149 µM (inactive)

// query: CCCCCCCCCCCCCCCC(=O)OCC1OC(OC)C2NP(=O)(N(CCCl)CCCl)OC1C2O (stereo unspecified) 22.2 µM (inactive)

Another: `Cc1c(-c2ccccc2)c(C#N)c2nnn(-c3ccccc3)c(=O)n12` > 100 µM (inactive)

Further, for `Cc1cccc(NC(=O)/C=C/c2ccc(N(CCC#N)CCC#N)cc2C)c1` ? > 100 µM (inactive)

Request: `NNC(=O)c1ccc(OCc2nc3ccccc3[nH]2)cc1` > 100 µM (inactive)

Now the compound `CCNC(=O)Nc1cccc(NC(=O)NCC)n1` > 100 µM (inactive)

CCCCCC[C@H]1C(=O)O[C@H](C)[C@H](NC(=O)c2cccc(NC=O)c2OC)C(=O)O[C@@H](C)[C@@H]1OC(=O)C(C)CC.CCCCCC[C@H]1C(=O)O[C@H](C)[C@H](NC(=O)c2cccc(NC=O)c2OC)C(=O)O[C@@H](C)[C@@H]1OC(=O)CC(C)C (stereo partly specified) , same question. > 100 µM (inactive)

Item: `Cc1cc(O)c(C(C)C)cc1C(=S)Nc1ccc(Cl)cc1` 13.9 µM (inactive)

What about this compound? `O=C1Nc2ccccc2/C1=N/NC(=S)N1CCCC1` > 100 µM (inactive)

// repeat for `c1ccc(Nc2nnc(-c3ccccc3Nc3ccccc3-c3nnc(Nc4ccccc4)s3)s2)cc1` and report > 100 µM (inactive)

----------
What GI50 was measured for each of the following?
system: IGROV-1; assay: NCI tumour cell line growth inhibition, 48 h
Active and inactive are the calls of the source. No stated cut-off is given here; in the data, active = GI50 up to about 1.1 µM and inactive = higher.

Request the reported GI50 associated with Cc1ccccc1C1CC(=O)CC(c2ccccc2C)C12C(=O)NC(=O)NC2=O (stereo not given) 62.5 µM (inactive)

Now this one: `O=C(OCCN=c1c2ccccc2ccc2ccccc12)c1cc([N+](=O)[O-])cc([N+](=O)[O-])c1` > 100 µM (inactive)

Follow-up entry: COC(=O)[C@]12CC3C=CC1N(C3)C(CBr)c1c2n(S(=O)(=O)c2ccccc2)c2ccccc12 (stereo not given in full) 72.9 µM (inactive)

Same question for `CSC(=S)N/N=C(\C)c1ccc(S(=O)(=O)N(C)c2ccccc2)cc1` please. 3.5 µM (inactive)

Thanks! And `CC(C)CNC(=O)Cn1c2c(c3ccccc31)CCCC2` ? 14.9 µM (inactive)

----------
system: HCC 2998; assay: NCI tumour cell line growth inhibition, 48 h
Calls of active or inactive are those of the source. Cut-off read from the data, not from the text of the source: active = GI50 up to about 1.1 µM and inactive = higher.
parameter: GI50

What value of GI50 has been reported for the following molecule? `Cc1ccc(-n2cc(-c3ccc(Cl)cc3)c3c(=N)n(N)cnc32)cc1` 6.11 µM (inactive)

What about `CCOC1=NC(C(F)(F)F)(C(F)(F)F)N=C(N2CCOCC2)O1` ? > 100 µM (inactive)

Please give the result for `CC(=O)C1(C(=O)C(=[N+]=[N-])S(=O)(=O)c2ccccc2)CC1` too. > 100 µM (inactive)

// next record CSC(=S)OC1C(CO[Si](C)(C)C(C)(C)C)OC2OC(C)(C)OC21 (configuration not stated) 21.3 µM (inactive)

// query: `O=C1Nc2ccc(Br)cc2/C1=N/Nc1ccc([N+](=O)[O-])cc1[N+](=O)[O-]` 10.2 µM (inactive)

// next record COC(=O)/C=C1\CCC(C)O1 (configuration not stated) > 100 µM (inactive)

Same question for `O=c1oc2c/c(=C\c3ccc([N+](=O)[O-])cc3)c(=O)c3cccc1c3-2` please. > 100 µM (inactive)

----------
For each record, write down the corresponding GI50.
tested on: UACC-62; assay: NCI tumour cell line growth inhibition, 48 h
Active and inactive are the calls of the source. No stated cut-off is given here; in the data, active = GI50 up to about 1.1 µM and inactive = higher. Bridge positions count the residues as written; N and C are the ends. Square brackets hold non-standard residues; d marks the D form. Peptide text beside a SMILES is read from it. * marks the point of attachment. Cbz = O=C(OCc1ccccc1)*; Dab = NCC[CH](N)C(=O)O; Bn = c1ccc(C*)cc1

What GI50 appears in the records for this compound with UACC-62? C=C(CCCCCCCCC)CC(=O)SCCNC(=O)CCNC(=O)C(O)C(C)(C)COP(=O)(O)OP(=O)(O)OCC1OC(n2cnc3c(N)ncnc32)C(O)C1OP(=O)(O)O (stereo not given) 21.1 µM (inactive)

Param item: `C1=CC=C2NCCOCC/N=C3/C=CC=CC=C3NCCOCC/N=C\2C=C1` 47.9 µM (inactive)

Try this compound next: O=C(N/C(=C\c1ccccc1)C1Nc2ccccc2C(=O)O1)c1ccccc1 (stereo not given) 27.5 µM (inactive)

Next up: `CSC(=S)N/N=C(\C)c1ccc(S(=O)(=O)N(C)c2ccccc2)cc1` 43.2 µM (inactive)

# repeat for CCCCCCCCCCCCCCCC(=O)OCC1OC(OC)C2NP(=O)(N(CCCl)CCCl)OC1C2O (stereo not given) 1.23 µM (inactive)

Ok, now CCC(C)NC1=NCC(C)S1 (stereo not given) > 100 µM (inactive)

Then what about the compound CC1(O)C(C)(O)C(C)(O)C1(C)O (stereo not given) ? > 100 µM (inactive)

Now give it for CC(C)(C)C1CCC2(CC1)c1[nH]c3ccccc3c1C1(CCC(C(C)(C)C)CC1)c1[nH]c3ccccc3c12 (stereo not given) too. > 100 µM (inactive)

Next record, please: `CC(C)CNC(=O)Cn1c2c(c3ccccc31)CCCC2` 50.1 µM (inactive)

Another compound to check: `CSc1nc(-c2ccc(C)cc2)c(C#N)c(=O)[nH]1` > 100 µM (inactive)

Request: `CCOC1=NC(C(F)(F)F)(C(F)(F)F)N=C(N2CCOCC2)O1` 24 µM (inactive)

Next compound up: C=C1C(=O)OC2/C=C(/C)C3(O)OC(C)(CC(OC(=O)C(C)C)C12)CC3OC(C)=O (stereo not given) 11 µM (inactive)

Try this compound too: `COC(=O)C[C@H](COCc1ccccc1)NC(=O)C[C@H](COCc1ccccc1)NC(=O)OC(C)(C)C` 36.6 µM (inactive)

And `COCCOCCOCCOc1cccc2c1C(=O)c1cccc(OCCOCCOCCOC)c1C2=O` ? > 100 µM (inactive)

What about this compound? CC(C)CC1NC(=O)C(Cc2ccccc2)NC(=O)C(Cc2ccccc2)NC(=O)C(NC(=O)C(Cc2ccc(OCc3ccccc3)cc2)NC(=O)OCc2ccccc2)CCNC1=O (stereo not given) (Cbz-Y(Bn)[Dab]FFL; lactam 2-C; configuration not given here) 8.47 µM (inactive)

Let us now turn to `CN(C)C(=O)/C=C/c1c[nH]c(=O)[nH]c1=O` > 500 µM (inactive)

Query CNC(C)Cc1ccc(O)cc1 (stereo not given) next > 100 µM (inactive)

Then what about the compound `Oc1cccc2nc3cc(CN4CCOCC4)c(CN4CCOCC4)cc3nc12` ? 40.2 µM (inactive)

Now give it for `Cc1ccc(/N=N/c2c(O)ccc3cc(S(=O)(=O)O)ccc23)cc1` too. > 100 µM (inactive)

Queued: O=C1NN=C2C=C(c3ccc(Cl)cc3)CC(c3cccc(Cl)c3)C12 (stereo not given) 15.8 µM (inactive)

----------
tested on: SK-MEL-28; experiment: NCI tumour cell line growth inhibition, 48 h
Calls of active or inactive are those of the source. Cut-off read from the data, not from the text of the source: active = GI50 up to about 1.1 µM and inactive = higher.
parameter: GI50

Return reported GI50; argument: CCOC(=O)C1=COC(C)(c2ccccc2)CC1=O (configuration not stated) > 100 µM (inactive)

Input `COc1ccc(/N=N/N2CCCC2)cc1` 44.2 µM (inactive)

Same thing, different compound: `CCSc1c2cc(OC)ccc2nc2ccc(OC)cc12` 14.9 µM (inactive)

Now give it for `ClC1=C(Cc2ccccc2)Cc2ccc3c(c21)CCC3` too. 66.5 µM (inactive)

Entry to check: COc1ccc(C2NC(N)=C(C#N)C3=C2C(C)CCC3)cc1OC (configuration not stated) > 100 µM (inactive)

Another compound to look at: `Cc1occc1/C(S)=N\c1ccc(Cl)c(COC(C)(C)C)c1` 16.5 µM (inactive)

Similarly, `O=[N+]([O-])c1cccc(-c2ncnc(-c3cccc([N+](=O)[O-])c3)n2)c1` ? > 100 µM (inactive)

Now the same for C#C[C@H]1CCCCCC1O (some centres not stated) > 100 µM (inactive)

Item: `Oc1cccc2nc3cc(CN4CCOCC4)c(CN4CCOCC4)cc3nc12` > 100 µM (inactive)

Repeat with COCC1N=C(c2ccc(OC)c(OCc3ccccc3)c2OC)O[C@H]1c1ccccc1 (some centres not stated) 20.7 µM (inactive)

Same question for CCOC1=NC(C(F)(F)F)(C(F)(F)F)N=C(/N=C(/N)N(C)C(C(C)C)P(=O)(OC(C)C)OC(C)C)O1 (configuration not stated) please. > 100 µM (inactive)

Same question, `CSc1n[n+](C)cc(N)c1N` this time > 100 µM (inactive)
